- Tested on: Streptococcus pyogenes
- protocol_notes: Antibacterial activity against erythromycin-resistant Streptococcus pyogenes 6 after 16 to 20 hrs by microbroth dilution method
- Format: functional

compound: CO/N=C(\C(=O)N[C@@H]1C(=O)N2C(C(=O)O)=C(CSc3nc(=O)c(O)nn3C)CS[C@H]12)c1csc(N)n1 [CEFTRIAXONE]
units: µg/mL
relational_operator: <
MIC: 0.12

compound: NC(=O)c1noc(-c2ccc(N3CCOCC3)cc2)n1
units: µg/mL
relational_operator: =
MIC: 128

compound: CC(=O)NCc1noc(-c2ccc(N3CCOCC3)cc2)n1
units: µg/mL
relational_operator: =
MIC: 128

compound: CC(=O)NCc1noc(-c2cc(F)c(N3CCOCC3)c(F)c2F)n1
units: µg/mL
relational_operator: =
MIC: 128

compound: CC(=O)NCc1noc(-c2c(F)c(F)c(N3CCOCC3)c(F)c2F)n1
units: µg/mL
relational_operator: >
MIC: 256

compound: CC(=O)NC[C@H]1CN(c2ccc(N3CCOCC3)c(F)c2)C(=O)O1 [LINEZOLID]
units: µg/mL
relational_operator: =
MIC: 0.12

----------
MIC for assorted molecules
- Tested on: Serratia marcescens
- protocol_notes: Antibacterial activity against Serratia marcescens Mel 522 after 16 to 20 hrs by microbroth dilution method
- Format: functional
endpoint_name: MIC

molecule: NC(=O)c1noc(-c2cc(F)c(N3CCOCC3)c(F)c2)n1
assayed_system: Serratia marcescens
experimental_result: > 256 µg/mL
--
molecule: CC(=O)NCc1noc(-c2ccc(N3CCOCC3)cc2)n1
assayed_system: Serratia marcescens
experimental_result: 128 µg/mL
--
molecule: CC(=O)NCc1noc(-c2c(F)c(F)c(N3CCOCC3)c(F)c2F)n1
assayed_system: Serratia marcescens
experimental_result: > 256 µg/mL
--
molecule: NC(=O)c1noc(-c2cc(F)c(N3CCOCC3)c(F)c2F)n1
assayed_system: Serratia marcescens
experimental_result: > 256 µg/mL
--
molecule: CC(=O)NC[C@H]1CN(c2ccc(N3CCOCC3)c(F)c2)C(=O)O1 [LINEZOLID]
assayed_system: Serratia marcescens
experimental_result: 128 µg/mL
--
molecule: NC(=O)c1noc(-c2ccc(N3CCOCC3)cc2)n1
assayed_system: Serratia marcescens
experimental_result: 128 µg/mL
--
molecule: CC(=O)NCc1noc(-c2cc(F)c(N3CCOCC3)c(F)c2)n1
assayed_system: Serratia marcescens
experimental_result: > 256 µg/mL
--
molecule: NC(=O)c1noc(-c2ccc(N3CCOCC3)c(F)c2)n1
assayed_system: Serratia marcescens
experimental_result: 128 µg/mL
--
molecule: CO/N=C(\C(=O)N[C@@H]1C(=O)N2C(C(=O)O)=C(CSc3nc(=O)c(O)nn3C)CS[C@H]12)c1csc(N)n1 [CEFTRIAXONE]
assayed_system: Serratia marcescens
experimental_result: < 0.12 µg/mL
--
molecule: CC(=O)NCc1noc(-c2ccc(N3CCOCC3)c(F)c2)n1
assayed_system: Serratia marcescens
experimental_result: > 256 µg/mL
--
molecule: CC(=O)NCc1noc(-c2cc(F)c(N3CCOCC3)c(F)c2F)n1
assayed_system: Serratia marcescens
experimental_result: > 256 µg/mL
--
molecule: NC(=O)c1noc(-c2c(F)c(F)c(N3CCOCC3)c(F)c2F)n1
assayed_system: Serratia marcescens
experimental_result: > 256 µg/mL

----------
- Test system: Escherichia coli
- protocol_notes: Antibacterial activity against Escherichia coli ATCC 25922 after 16 to 20 hrs by microbroth dilution method
- Assay type: functional

chemical_structure: NC(=O)c1noc(-c2ccc(N3CCOCC3)c(F)c2)n1
assayed_system: Escherichia coli
MIC: 128 µg/mL
//
chemical_structure: NC(=O)c1noc(-c2ccc(N3CCOCC3)cc2)n1
assayed_system: Escherichia coli
MIC: > 256 µg/mL
//
chemical_structure: CO/N=C(\C(=O)N[C@@H]1C(=O)N2C(C(=O)O)=C(CSc3nc(=O)c(O)nn3C)CS[C@H]12)c1csc(N)n1
assayed_system: Escherichia coli
MIC: 0.12 µg/mL
//
chemical_structure: CC(=O)NCc1noc(-c2cc(F)c(N3CCOCC3)c(F)c2F)n1
assayed_system: Escherichia coli
MIC: 128 µg/mL
//
chemical_structure: CC(=O)NCc1noc(-c2cc(F)c(N3CCOCC3)c(F)c2)n1
assayed_system: Escherichia coli
MIC: 128 µg/mL
//
chemical_structure: CC(=O)NCc1noc(-c2ccc(N3CCOCC3)cc2)n1
assayed_system: Escherichia coli
MIC: > 256 µg/mL
//
chemical_structure: NC(=O)c1noc(-c2cc(F)c(N3CCOCC3)c(F)c2F)n1
assayed_system: Escherichia coli
MIC: 128 µg/mL

----------
- Test system: Staphylococcus aureus
- protocol_notes: Antibacterial activity against methicillin-sensitive Staphylococcus aureus ATCC 25923 after 16 to 20 hrs by microbroth dilution method
- Assay type: functional
compounds and their reported MIC

compound: CC(=O)NCc1noc(-c2c(F)c(F)c(N3CCOCC3)c(F)c2F)n1
MIC: > 256 µg/mL
--
compound: NC(=O)c1noc(-c2ccc(N3CCOCC3)cc2)n1
MIC: > 256 µg/mL
--
compound: CO/N=C(\C(=O)N[C@@H]1C(=O)N2C(C(=O)O)=C(CSc3nc(=O)c(O)nn3C)CS[C@H]12)c1csc(N)n1 [CEFTRIAXONE]
MIC: 1 µg/mL
--
compound: CC(=O)NCc1noc(-c2ccc(N3CCOCC3)cc2)n1
MIC: > 256 µg/mL
--
compound: CC(=O)NCc1noc(-c2ccc(N3CCOCC3)c(F)c2)n1
MIC: > 256 µg/mL
--
compound: NC(=O)c1noc(-c2cc(F)c(N3CCOCC3)c(F)c2)n1
MIC: > 256 µg/mL
--
compound: CC(=O)NCc1noc(-c2cc(F)c(N3CCOCC3)c(F)c2F)n1
MIC: > 256 µg/mL
--
compound: CC(=O)NC[C@H]1CN(c2ccc(N3CCOCC3)c(F)c2)C(=O)O1 [LINEZOLID]
MIC: 1 µg/mL
--
compound: NC(=O)c1noc(-c2ccc(N3CCOCC3)c(F)c2)n1
MIC: > 256 µg/mL
--
compound: CC(=O)NCc1noc(-c2cc(F)c(N3CCOCC3)c(F)c2)n1
MIC: > 256 µg/mL
--
compound: NC(=O)c1noc(-c2c(F)c(F)c(N3CCOCC3)c(F)c2F)n1
MIC: > 256 µg/mL
--
compound: NC(=O)c1noc(-c2cc(F)c(N3CCOCC3)c(F)c2F)n1
MIC: > 256 µg/mL

----------
- System: Escherichia coli
- protocol_notes: Antibacterial activity against Escherichia coli ATCC 25922 after 16 to 20 hrs by microbroth dilution method
- Type: functional
Listed here are compounds together with their documented MIC.

compound: CC(=O)NCc1noc(-c2c(F)c(F)c(N3CCOCC3)c(F)c2F)n1
units: µg/mL
MIC: 128
--
compound: NC(=O)c1noc(-c2c(F)c(F)c(N3CCOCC3)c(F)c2F)n1
units: µg/mL
MIC: 128
--
compound: NC(=O)c1noc(-c2cc(F)c(N3CCOCC3)c(F)c2)n1
units: µg/mL
MIC: 128
--
compound: CC(=O)NCc1noc(-c2ccc(N3CCOCC3)c(F)c2)n1
units: µg/mL
MIC: 128
--
compound: CC(=O)NC[C@H]1CN(c2ccc(N3CCOCC3)c(F)c2)C(=O)O1 [LINEZOLID]
units: µg/mL
MIC: 4

----------
- System: Streptococcus pneumoniae
- protocol_notes: Antibacterial activity against Streptococcus pneumoniae PEN-1 after 16 to 20 hrs by microbroth dilution method
- Format: functional
- experimental_conditions: PEN I
# key: entry, value: MIC
endpoint_name: MIC

chemical_structure: NC(=O)c1noc(-c2ccc(N3CCOCC3)c(F)c2)n1
experimental_result: > 256 µg/mL
--
chemical_structure: NC(=O)c1noc(-c2c(F)c(F)c(N3CCOCC3)c(F)c2F)n1
experimental_result: > 256 µg/mL
--
chemical_structure: NC(=O)c1noc(-c2cc(F)c(N3CCOCC3)c(F)c2)n1
experimental_result: > 256 µg/mL
--
chemical_structure: CC(=O)NCc1noc(-c2c(F)c(F)c(N3CCOCC3)c(F)c2F)n1
experimental_result: > 256 µg/mL
--
chemical_structure: NC(=O)c1noc(-c2ccc(N3CCOCC3)cc2)n1
experimental_result: 128 µg/mL
--
chemical_structure: NC(=O)c1noc(-c2cc(F)c(N3CCOCC3)c(F)c2F)n1
experimental_result: > 256 µg/mL
--
chemical_structure: CC(=O)NCc1noc(-c2ccc(N3CCOCC3)c(F)c2)n1
experimental_result: > 256 µg/mL
--
chemical_structure: CO/N=C(\C(=O)N[C@@H]1C(=O)N2C(C(=O)O)=C(CSc3nc(=O)c(O)nn3C)CS[C@H]12)c1csc(N)n1
experimental_result: 0.12 µg/mL
--
chemical_structure: CC(=O)NCc1noc(-c2cc(F)c(N3CCOCC3)c(F)c2F)n1
experimental_result: > 256 µg/mL
--
chemical_structure: CC(=O)NCc1noc(-c2ccc(N3CCOCC3)cc2)n1
experimental_result: 128 µg/mL
--
chemical_structure: CC(=O)NCc1noc(-c2cc(F)c(N3CCOCC3)c(F)c2)n1
experimental_result: > 256 µg/mL

The values you see were collected from ChEMBL document CHEMBL1949535.
